Ref: paper PMC4874493

Target: APOBEC3A E72Q (human, UniProt P31941 1-199, E72Q)
Sequence (P31941 whole entry E72Q): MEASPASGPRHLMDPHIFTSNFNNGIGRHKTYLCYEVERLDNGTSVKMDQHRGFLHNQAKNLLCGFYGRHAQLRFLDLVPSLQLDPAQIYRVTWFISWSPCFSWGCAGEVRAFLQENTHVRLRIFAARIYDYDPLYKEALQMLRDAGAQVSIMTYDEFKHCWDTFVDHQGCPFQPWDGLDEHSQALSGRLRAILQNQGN
Test: fluorescence anisotropy
MEASURED_PROPERTY: pKd
Recall that pKd is obtained by taking minus log10 of the concentration measured in molar.

Value of measured pKd for the entry TTTTTTTTTTTTTTT (ssDNA) [polyT (TTT)] : 6.69
